Test system: SF-268
Experiment: NCI tumour cell line growth inhibition, 48 h
The source made the active and inactive calls. Cut-off read from the data, not from the text of the source: active = GI50 up to about 1.1 µM and inactive = higher. Numbered stars: 1 amine (or outer) side, 2 acyl side, 3 side chain; on linkers, the order of the positions; unused ones are H or OH. Bridge positions count the residues as written; N and C are the ends. Square brackets hold non-standard residues; d marks the D form. Peptide text beside a SMILES is read from it. X58 = COc1c(N[*:1])cccc1C(=O)O[C@H](C(=O)[C@H](C)C(=O)[*:2])C(C)C; X57 = CC(C)C[C@H](C(=O)[*:2])C(C)C(=O)C1CCCN1[*:1]; NMeY = CN[C@@H](Cc1ccc(O)cc1)C(=O)O; Lac = C[C@H](O)C(=O)O
Write down the outcome that applies. Available outcomes: class 1 for active, class 0 for inactive

Answered examples (5):
CCOC(=O)CNC(=O)c1nc[nH]c1/N=N/N(C)C = class 0
C=Cn1c([N+](=O)[O-])cnc1/C=C/c1ccc(C(=O)OCCN2CCOCC2)cc1 = class 0
C(=C\c1cc(CCc2nc3ccccc3[nH]2)n[nH]1)/c1ccccc1 = class 0
OB(O)c1ccccc1C#Cc1ccccc1B(O)O = class 0
COc1ccc(C[C@H]2C(=O)O[C@H](C)[C@H](NC(=O)[C@@H](CC(C)C)C(C)C(=O)C3CCCN3C(=O)[C@H](C)O)C(=O)Nc3cccc(c3OC)C(=O)O[C@@H](C(C)C)C(=O)[C@H](C)C(=O)N[C@@H](CC(C)C)C(=O)N3CCC[C@H]3C(=O)N2C)cc1 (stereo not given in full) (H-[Lac][X57]T[X58]LP[NMeY](Me); ester 3-C) = class 0

What classification did C[C@@H]1CC[C@@]2(C)OC(c3ccccc3)[C@H](CO)N2C1=O (stereo not given in full) end up with in this test?
class 0

Please state the recorded outcome for this compound: CC(=O)OCC1OC(n2c(C)c(C)cc(C#N)c2=S)C(OC(C)=O)C(OC(C)=O)C1OC(C)=O (stereo not given)
class 0

GET /call?item= `COc1ccc2c(c1)C(=O)c1ccc(OC)cc1C2=S` returns the recorded outcome of this test.
class 0

So what was the verdict on CCOC(=O)C(NC(=O)CC)(Nc1cc(C)on1)C(F)(F)F (stereo not given) in this test?
class 0

Lab log entry: `O=c1[nH]nc(Cc2ccccc2)n1/N=C/c1cccnc1` — outcome as called in the assay?
class 0

Please let me know the test result on file for `NC(=O)NN=C(CS)CS` .
class 0

Recorded test call requested for `CO[C@]12C[C@@H](CNC(=O)c3cc(Br)c[nH]3)O[C@H]1NC(=O)N2`
class 0

Which outcome did this test record for the compound `CC1=C(C(=O)CC(=O)C(=O)Nc2cc(C)ccc2C)Sc2ccccc2N1` ?
class 0

What call does the record list for CCOC(OC(C)=O)[C@@H]1C=C[C@H](C)N(c2ccc([N+](=O)[O-])cc2)O1 (stereo not given in full) ?
class 0

I would be grateful if you could indicate the recorded call for `COc1ccc(-c2c(C#N)c(N)nc3c2CCS(=O)(=O)c2ccccc2-3)cc1` .
class 0

Cited source: ChEMBL document CHEMBL1201862
